Molecular target: Cellular tumor antigen p53 (Homo sapiens) (UniProt P04637)
Sequence (P04637 whole entry, looked up): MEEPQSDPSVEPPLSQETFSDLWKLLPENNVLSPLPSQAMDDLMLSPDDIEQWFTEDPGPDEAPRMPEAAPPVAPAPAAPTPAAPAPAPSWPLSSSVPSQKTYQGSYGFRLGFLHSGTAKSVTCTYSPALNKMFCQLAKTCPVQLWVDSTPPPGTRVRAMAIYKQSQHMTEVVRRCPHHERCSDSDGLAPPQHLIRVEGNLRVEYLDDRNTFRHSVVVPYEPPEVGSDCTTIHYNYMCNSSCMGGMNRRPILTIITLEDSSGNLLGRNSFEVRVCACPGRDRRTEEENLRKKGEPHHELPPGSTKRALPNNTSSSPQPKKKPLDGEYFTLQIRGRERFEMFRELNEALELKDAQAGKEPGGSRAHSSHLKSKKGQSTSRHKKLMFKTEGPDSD
Assay: TOX21_p53_BLA_p3_ratio: Tox21 HCT-116 p53 Agonism Beta-lactamase Assay, Ratio, Phase 3 (AID 2283596)
Records with an inconclusive call do not appear. Activity calls are given as the source filed them. How the source made its calls: active means hit-call score of the fitted dose curve at least 0.9, where 1 is the maximum; inconclusive means response in the unintended direction; inactive means score below 0.9.
Possible outcomes: 1.0 for active, 0.0 for inactive

compound	answer.label
CCNC(=O)C1CC(C)CCC1C(C)C (configuration not stated)	0.0
CN1CCCC(CC2c3ccccc3Sc3ccccc32)C1 (configuration not stated)	0.0
CC(=O)Nc1cccc(N)c1	0.0
COc1cc(Cl)ccc1Cl	0.0
CCOC(=O)C1=C(C)NC(C)=C(C(=O)OC)C1c1cccc(Cl)c1Cl (configuration not stated)	0.0
CC(C)C[C@@H](N)C(=O)O	0.0
O=C1OC(=O)c2cccc3cccc1c23	0.0
BrC(Br)C(Br)Br	0.0
CC(=O)N[C@@H](CC(=O)N[C@@H](CCC(=O)O)C(=O)O)C(=O)O	0.0
CC1CCCC(=O)C1=O (configuration not stated)	0.0
OCc1c2ccccc2cc2ccccc12	0.0
Cn1cnc2ncnc(N)c21	0.0
C=Cc1ccccn1	0.0
CCCCCO	0.0
CC(=O)c1ccc(Cl)c(Cl)c1Cl	0.0
Cc1cc(O)ccc1N	0.0
CN(C)CCN1C(=O)c2ccccc2N(C)c2ccccc21	0.0
CN[C@@H]1[C@@H](O)[C@@H](O[C@@H]2[C@@H](O)[C@H](O[C@H]3O[C@H](CN)[C@@H](O)[C@H](O)[C@H]3O)[C@@H](N)C[C@H]2NC(=O)C(O)CN)OC[C@]1(C)O (some centres not stated)	0.0
c1ccc2c(c1)ccc1c3ccccc3ccc21	0.0
O=C1CCCC(=O)C1	0.0
CN1CCN(c2c(F)cc3c(=O)c(C(=O)O)cn4c3c2OCN4C)CC1	0.0
CC(C(=O)O)c1ccc(C(=O)c2cccs2)cc1 (configuration not stated)	0.0
C#C[C@]1(O)CC[C@H]2[C@@H]3CCC4=CC(=O)CC[C@@H]4[C@H]3C(=C)C[C@@]21CC	0.0
C=CC[N+]1([C@H]2C[C@H]3[C@@H]4CC[C@H]5C[C@H](O)[C@@H](N6CCOCC6)C[C@]5(C)[C@H]4CC[C@]3(C)[C@H]2OC(C)=O)CCCC1	0.0
CC(C)(C)C(=O)NCCCC(=O)O	0.0
CC(Oc1ccccc1)C(=O)N[C@@H]1C(=O)N2[C@@H]1SC(C)(C)[C@@H]2C(=O)O (some centres not stated)	0.0
CNCC(=O)N[C@@H](CCCN=C(N)N)C(=O)N[C@H](C(=O)N[C@@H](Cc1ccc(O)cc1)C(=O)N[C@H](C(=O)N[C@@H](Cc1cnc[nH]1)C(=O)N1CCC[C@H]1C(=O)N[C@@H](C)C(=O)O)C(C)C)C(C)C	0.0
Cc1c[nH]c2ccccc12	0.0
COc1ccc(Nc2ccc(OC)cc2)cc1	0.0
C=N[C@@H](C(=O)N[C@@H]1C(=O)N2[C@@H]1SC(C)(C)[C@@H]2C(=O)O)c1ccccc1	0.0
Cc1ccccc1N=O	0.0
CN1CCN(C(c2ccccc2)c2ccccc2)CC1	0.0
Cc1ccccc1OCC(O)CNCCOc1ccc(C(N)=O)cc1 (configuration not stated)	0.0
CC1(C)S[C@@H]2[C@H](NC(=O)C(C(=O)Oc3ccc4c(c3)CCC4)c3ccccc3)C(=O)N2[C@H]1C(=O)O (some centres not stated)	0.0
CCOc1cc(NC(C)=O)ccc1C(=O)OC	0.0
NCCCC(=O)O	0.0
CC[C@]1(O)C[C@H]2CN(CCc3c([nH]c4ccccc34)[C@@](C(=O)OC)(c3cc4c(cc3OC)N(C=O)[C@H]3[C@@](O)(C(=O)OC)[C@H](OC(C)=O)[C@]5(CC)C=CCN6CC[C@]43[C@@H]65)C2)C1	1.0
CCCOC(=O)c1ccccc1O	0.0
COC(=O)c1cc(C(=O)OC)cc(S(=O)(=O)O)c1	0.0
COc1ccc(-c2cc(C(F)F)nn2-c2ccc(S(N)(=O)=O)cc2)cc1F	0.0
CC(O)CCCCn1c(=O)c2c(ncn2C)n(C)c1=O (configuration not stated)	0.0
OCC(F)(F)F	0.0
CC(C)OC(=O)C(C(=O)OC(C)C)=C1SC=CS1	0.0
Nc1c2c(nc3ccccc13)CCCC2O (configuration not stated)	0.0
CCOC(=O)C1=C[C@]2(CC)CCCN3CCc4c(n1c1ccccc41)[C@@H]32	0.0
O=Nc1ccc(NO)cc1	0.0
Cn1nnnc1SCC1=C(C(=O)O)N2C(=O)[C@@H](NC(=O)[C@H](O)c3ccccc3)[C@H]2SC1	0.0
